Recorded MIC values for a group of compounds are listed next.
Test system: Streptococcus pneumoniae
Assay: Antimicrobial activity against drug-resistant Streptococcus pneumoniae isolate 1635 after 49 passages with clarithromycin measured after 10 antibiotic-free subculture by multi-step resistance selection technique
Format: functional
Recorded endpoint: MIC (µg/mL)

{"Compound": "CO/N=C1\\CN(c2nc3c(cc2F)c(=O)c(C(=O)O)cn3C2CC2)CC1CN (stereo not drawn)", "Measured on": "Streptococcus pneumoniae", "Qual": "=", "Experimental value": 0.03}
{"Compound": "CO/N=C(\\C(=O)N[C@@H]1C(=O)N2C(C(=O)O)=C(CSc3nc(=O)c(O)nn3C)CS[C@H]12)c1csc(N)n1", "Measured on": "Streptococcus pneumoniae", "Qual": "=", "Experimental value": 0.016}
{"Compound": "CC[C@H]1OC(=O)[C@H](C)[C@@H](O[C@H]2C[C@@](C)(OC)[C@@H](O)[C@H](C)O2)[C@H](C)[C@@H](O[C@@H]2O[C@H](C)C[C@H](N(C)C)[C@H]2O)[C@](C)(O)C[C@@H](C)CN(C)[C@H](C)[C@@H](O)[C@]1(C)O", "Measured on": "Streptococcus pneumoniae", "Qual": ">", "Experimental value": 64}

---

Test system: Streptococcus pneumoniae
Test: Antimicrobial activity against drug-resistant Streptococcus pneumoniae isolate 3243 by NCCLS M7-A7 method
Assay type: functional
Recorded endpoint: MIC (µg/mL)

{"Compound": "C[C@@H](O)[C@H]1C(=O)N2C(C(=O)O)=C(SCCNC=N)C[C@H]12 [IMIPENEM ANHYDROUS]", "Recorded endpoint": "MIC", "Experimental value": 0.016}
{"Compound": "CC[C@H]1OC(=O)[C@H](C)C(=O)[C@H](C)[C@@H](O[C@@H]2O[C@H](C)C[C@H](N(C)C)[C@H]2O)[C@](C)(OC)C[C@@H](C)C(=O)[C@H](C)[C@H]2N(CCCCn3cnc(-c4cccnc4)c3)C(=O)O[C@]12C [TELITHROMYCIN]", "Recorded endpoint": "MIC", "Experimental value": 0.004}
{"Compound": "CO/N=C1\\CN(c2nc3c(cc2F)c(=O)c(C(=O)O)cn3C2CC2)CC1CN (stereo not drawn) [GEMIFLOXACIN]", "Recorded endpoint": "MIC", "Experimental value": 0.016}

---

Recorded MIC values for a group of compounds are listed next.
Test system: Streptococcus pneumoniae
Experiment: Antimicrobial activity against drug-resistant Streptococcus pneumoniae isolate 3413 after 50 passages by multi-step resistance selection technique
Assay type: functional

{"Compound": "CO/N=C1\\CN(c2nc3c(cc2F)c(=O)c(C(=O)O)cn3C2CC2)CC1CN (stereo unspecified)", "MIC / µg/mL": 0.016}
{"Compound": "CO/N=C(\\C(=O)N[C@@H]1C(=O)N2C(C(=O)O)=C(CSc3nc(=O)c(O)nn3C)CS[C@H]12)c1csc(N)n1", "MIC / µg/mL": 1}
{"Compound": "CCC[C@@H]1C[C@@H](C(=O)N[C@@H]([C@H]2O[C@H](SC)[C@H](O)[C@@H](O)[C@H]2O)[C@H](C)Cl)N(C)C1", "MIC / µg/mL": 0.008}
{"Compound": "CN(C)c1cc(NC(=O)CNC(C)(C)C)c(O)c2c1C[C@H]1C[C@H]3[C@H](N(C)C)C(O)=C(C(N)=O)C(=O)[C@@]3(O)C(O)=C1C2=O", "MIC / µg/mL": 0.03}
{"Compound": "CC[C@H]1OC(=O)[C@H](C)[C@@H](O[C@H]2C[C@@](C)(OC)[C@@H](O)[C@H](C)O2)[C@H](C)[C@@H](O[C@@H]2O[C@H](C)C[C@H](N(C)C)[C@H]2O)[C@](C)(OC)C[C@@H](C)C(=O)[C@H](C)[C@@H](O)[C@]1(C)O", "MIC / µg/mL": 8}
{"Compound": "C[C@@H](O)[C@H]1C(=O)N2C(C(=O)O)=C(SCCNC=N)C[C@H]12 [IMIPENEM ANHYDROUS]", "MIC / µg/mL": 0.06}

---

System: Streptococcus pneumoniae
Test: Antimicrobial activity against drug-resistant Streptococcus pneumoniae isolate 1076 by NCCLS M7-A7 method
Assay type: functional
With a cut-off of 0.03 µg/mL, any MIC strictly below it is called true; any MIC meeting it or above is called false.

{"Molecule": "CC[C@H]1OC(=O)[C@H](C)C(=O)[C@H](C)[C@@H](O[C@@H]2O[C@H](C)C[C@H](N(C)C)[C@H]2O)[C@](C)(OC)C[C@@H](C)C(=O)[C@H](C)[C@H]2N(CCCCn3cnc(-c4cccnc4)c3)C(=O)O[C@]12C", "Class": "false"}
{"Molecule": "CO/N=C1\\CN(c2nc3c(cc2F)c(=O)c(C(=O)O)cn3C2CC2)CC1CN (centres undefined)", "Class": "false"}
{"Molecule": "CC[C@H]1OC(=O)[C@H](C)[C@@H](O[C@H]2C[C@@](C)(OC)[C@@H](O)[C@H](C)O2)[C@H](C)[C@@H](O[C@@H]2O[C@H](C)C[C@H](N(C)C)[C@H]2O)[C@](C)(O)C[C@@H](C)CN(C)[C@H](C)[C@@H](O)[C@]1(C)O", "Class": "false"}
{"Molecule": "CC[C@H]1OC(=O)[C@H](C)[C@@H](O[C@H]2C[C@@](C)(OC)[C@@H](O)[C@H](C)O2)[C@H](C)[C@@H](O[C@@H]2O[C@H](C)C[C@H](N(C)C)[C@H]2O)[C@](C)(OC)C[C@@H](C)C(=O)[C@H](C)[C@@H](O)[C@]1(C)O", "Class": "false"}
{"Molecule": "CO/N=C(\\C(=O)N[C@@H]1C(=O)N2C(C(=O)O)=C(CSc3nc(=O)c(O)nn3C)CS[C@H]12)c1csc(N)n1", "Class": "true"}
{"Molecule": "C[C@@H](O)[C@H]1C(=O)N2C(C(=O)O)=C(SCCNC=N)C[C@H]12 [IMIPENEM ANHYDROUS]", "Class": "true"}
{"Molecule": "CCC[C@@H]1C[C@@H](C(=O)N[C@@H]([C@H]2O[C@H](SC)[C@H](O)[C@@H](O)[C@H]2O)[C@H](C)Cl)N(C)C1", "Class": "false"}
{"Molecule": "COc1c(N2C[C@@H]3CCCN[C@@H]3C2)c(F)cc2c(=O)c(C(=O)O)cn(C3CC3)c12", "Class": "false"}

---

Test system: Streptococcus pneumoniae
Test: Antimicrobial activity against drug-resistant Streptococcus pneumoniae isolate 3009 by NCCLS M7-A7 method
Type: functional

{"Compound": "CO/N=C1\\CN(c2nc3c(cc2F)c(=O)c(C(=O)O)cn3C2CC2)CC1CN (centres undefined)", "Measured on": "Streptococcus pneumoniae", "MIC": "0.016 µg/mL"}
{"Compound": "CO/N=C(\\C(=O)N[C@@H]1C(=O)N2C(C(=O)O)=C(CSc3nc(=O)c(O)nn3C)CS[C@H]12)c1csc(N)n1", "Measured on": "Streptococcus pneumoniae", "MIC": "0.03 µg/mL"}
{"Compound": "CC[C@H]1OC(=O)[C@H](C)[C@@H](O[C@H]2C[C@@](C)(OC)[C@@H](O)[C@H](C)O2)[C@H](C)[C@@H](O[C@@H]2O[C@H](C)C[C@H](N(C)C)[C@H]2O)[C@](C)(O)C[C@@H](C)CN(C)[C@H](C)[C@@H](O)[C@]1(C)O", "Measured on": "Streptococcus pneumoniae", "MIC": "> 64 µg/mL"}
{"Compound": "CC[C@H]1OC(=O)[C@H](C)C(=O)[C@H](C)[C@@H](O[C@@H]2O[C@H](C)C[C@H](N(C)C)[C@H]2O)[C@](C)(OC)C[C@@H](C)C(=O)[C@H](C)[C@H]2N(CCCCn3cnc(-c4cccnc4)c3)C(=O)O[C@]12C", "Measured on": "Streptococcus pneumoniae", "MIC": "0.016 µg/mL"}

---

System: Streptococcus pneumoniae
Test: Antimicrobial activity against drug-resistant Streptococcus pneumoniae isolate 3274 after 50 passages by multi-step resistance selection technique
Type: functional
Recorded endpoint: MIC (µg/mL)

{"Compound": "CCC[C@@H]1C[C@@H](C(=O)N[C@@H]([C@H]2O[C@H](SC)[C@H](O)[C@@H](O)[C@H]2O)[C@H](C)Cl)N(C)C1 [CLINDAMYCIN]", "Value unit": "µg/mL", "Experimental value": 0.008}
{"Compound": "CN(C)c1cc(NC(=O)CNC(C)(C)C)c(O)c2c1C[C@H]1C[C@H]3[C@H](N(C)C)C(O)=C(C(N)=O)C(=O)[C@@]3(O)C(O)=C1C2=O [TIGECYCLINE]", "Value unit": "µg/mL", "Experimental value": 0.03}
{"Compound": "CO/N=C1\\CN(c2nc3c(cc2F)c(=O)c(C(=O)O)cn3C2CC2)CC1CN (stereo not drawn) [GEMIFLOXACIN]", "Value unit": "µg/mL", "Experimental value": 0.06}
